From: PubChem BioAssay AID2540

biological target: Sentrin-specific protease 8 (Homo sapiens); assay: blockers of human SENP8 peptidase activity – biochemical, luminescence, primary screen (AID 2540); details: purified SENP8, Z-RLRGG-aminoluciferin cleavage, at 10 µM
In all, about 330,000 compounds went through this assay and about 4,100 (1.2%) were called active. Cut-off read from the data, not from the text of the source: active = inhibition above about 50%; inactive = the rest. The entries come from a sample that favours actives as a whole.
Thanks in advance; please answer with one of these: active, inactive

Solved entries (count: 5):
- molecule: "O=C(C[C@@H]1C/C=C\\CCC(=O)OC[C@@H]2CCCN2C1=O)NCCO"
  class.assignment: "inactive"
- molecule: "Cn1ncc(Br)c1C(=O)NCc1cccs1"
  class.assignment: "inactive"
- molecule: "Cc1cc(OC(=O)c2ccc(OC(C)C)cc2)c([N+](=O)[O-])c(=O)[nH]1"
  class.assignment: "inactive"
- molecule: "Cc1ccsc1C1C(C#N)=C(N)OC2=C1C(=O)CC(C)C2 (stereo unspecified)"
  class.assignment: "inactive"
- molecule: "O=C(CCCCO)c1ccc(O)c(Cl)c1"
  class.assignment: "inactive"

Hi, do you know how COc1ccc(C)cc1NC(=O)CSc1nnc2ccc(-c3ccccn3)nn12 came out in this test?
inactive

Check the results log: what was the call for O=C(CSc1nccc(=O)[nH]1)Nc1ccc(N2CCOCC2)c(Cl)c1 ?
inactive

Dear all, I need the recorded test outcome for CC(CNc1ccc([N+](=O)[O-])c2cccnc12)Nc1c([N+](=O)[O-])cc(C(F)(F)F)cc1[N+](=O)[O-] (stereo unspecified) , thank you.
inactive

Which result was noted for this molecule in the test: CCC(C(=O)Nc1ncccn1)(C(F)(F)F)C(F)(F)F
inactive

What call does the record list for C/C(=N/OC(=O)c1cccc(C(F)(F)F)c1)c1cnccn1 ?
inactive
